# Tested Target: recombinant rhesus mineralocorticoid receptor (Macaca mulatta)
# Construct: clarified cell lysate used
# Sequence (A0A5F8ATS5 1-984): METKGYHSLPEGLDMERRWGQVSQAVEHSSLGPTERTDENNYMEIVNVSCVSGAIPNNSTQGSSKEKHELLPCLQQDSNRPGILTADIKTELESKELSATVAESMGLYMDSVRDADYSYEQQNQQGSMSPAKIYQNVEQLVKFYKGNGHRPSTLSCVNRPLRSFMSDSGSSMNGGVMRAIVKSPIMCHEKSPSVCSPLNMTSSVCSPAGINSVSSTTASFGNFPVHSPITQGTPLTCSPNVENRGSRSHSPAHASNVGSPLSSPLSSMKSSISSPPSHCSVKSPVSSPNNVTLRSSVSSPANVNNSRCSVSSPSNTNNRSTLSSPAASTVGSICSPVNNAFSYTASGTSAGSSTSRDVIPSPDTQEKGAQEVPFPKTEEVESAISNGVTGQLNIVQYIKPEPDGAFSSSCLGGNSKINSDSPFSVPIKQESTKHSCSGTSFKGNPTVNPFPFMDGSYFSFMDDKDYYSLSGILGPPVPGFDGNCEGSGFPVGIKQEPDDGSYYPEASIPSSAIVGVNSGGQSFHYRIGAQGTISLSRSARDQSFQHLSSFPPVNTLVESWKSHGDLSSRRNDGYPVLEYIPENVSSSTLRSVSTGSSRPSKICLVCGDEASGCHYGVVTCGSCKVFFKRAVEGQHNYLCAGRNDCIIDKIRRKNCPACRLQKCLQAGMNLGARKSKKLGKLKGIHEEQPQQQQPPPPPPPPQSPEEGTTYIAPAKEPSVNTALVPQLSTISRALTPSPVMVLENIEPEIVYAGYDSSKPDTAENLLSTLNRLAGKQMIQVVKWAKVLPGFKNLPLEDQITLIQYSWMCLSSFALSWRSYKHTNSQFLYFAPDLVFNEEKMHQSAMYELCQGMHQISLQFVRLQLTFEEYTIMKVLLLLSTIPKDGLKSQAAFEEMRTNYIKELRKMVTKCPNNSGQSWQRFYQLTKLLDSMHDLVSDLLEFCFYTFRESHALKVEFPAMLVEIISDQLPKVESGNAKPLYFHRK
# Assay Info: Mineralocorticoid receptor radioligand ([3H]-aldosterone) filter binding assay
# Setup Conditions: displacement of [3H]-aldosterone, insect cell lysate, 20° C., read-out: Mineralocorticoid receptor binding affinity Ki
Observed Property: Ki (nM)

Check out these entries, answers already filled in.
>  <Molecule>
Cc1cccc(Cn2ccnc2C(c2ccccc2)c2ccccc2)c1

>  <Ki, nM>
134

$$$$
>  <Molecule>
Ic1cccc(Cn2ccnc2C(c2ccccc2)c2ccccc2)c1

>  <Ki, nM>
287

$$$$
>  <Molecule>
FC(F)(F)c1cccc(Cn2ccnc2C(c2ccccc2)c2ccccc2)c1

>  <Ki, nM>
410

$$$$

A: COc1ccc(Br)cc1Cn1ccnc1C(c1ccccc1)c1ccccc1
B: O=C(Nc1cccc(Cn2ccnc2C(c2ccccc2)c2ccccc2)c1)c1cc(Cl)cc(Cl)c1
C: CC(c1cc(C(F)(F)F)cc(C(F)(F)F)c1)n1ccnc1C(c1ccccc1)c1ccccc1 (centres unmarked)
D: COc1cc(OC)cc(C(=O)Nc2cccc(Cn3ccnc3C(c3ccccc3)c3ccccc3)c2)c1
E: CC(c1cccc(I)c1)n1ccnc1C(c1ccccc1)c1ccccc1 (centres unmarked)
Which order do these items take when sorted by rising Ki? List them. A ranking is expressed here by listing the labels in the requested order.
B, D, A, C, E
